I'd appreciate it if you could supply MIC values for the items below.
System: Fusobacterium nucleatum
Assay: Antimicrobial activity against beta lactamase-positive Fusobacterium nucleatum isolated from intra-abdominal infection and pelvic inflammatory disease patients after 48 hrs by time kill analysis
Type: functional
State the answer as a number, implicitly in µg/mL.

Data request: Identify the reported MIC for the following entry. `Cc1ncc([N+](=O)[O-])n1CCO`
Data returned: 0.016

Data request: Identify the reported MIC for the following entry. `C[C@@H](O)[C@H]1C(=O)N2C(C(=O)O)=C(S[C@@H]3CN[C@H](C(=O)Nc4cccc(C(=O)O)c4)C3)[C@H](C)[C@H]12`
Data returned: 0.008

Data request: Identify the reported MIC for the following entry. `CO/N=C(\C(=O)N[C@@H]1C(=O)N2C(C(=O)O)=C(CSc3nc(=O)c(O)nn3C)CS[C@H]12)c1csc(N)n1`
Data returned: 0.125

Data request: Identify the reported MIC for the following entry. C[C@@H](O)[C@H]1C(=O)N2C(C(=O)O)=C(SCCNC=N)C[C@H]12 [IMIPENEM ANHYDROUS]
Data returned: 0.016

Data request: Identify the reported MIC for the following entry. `C[C@@H](O)[C@H]1C(=O)N2C(C(=O)O)=C(S[C@@H]3CN[C@H](CNS(N)(=O)=O)C3)[C@H](C)[C@H]12`
Data returned: 0.016

Data request: Identify the reported MIC for the following entry. `C[C@@H](O)[C@H]1C(=O)N2C(C(=O)O)=C(S[C@@H]3CN[C@H](C(=O)N(C)C)C3)[C@H](C)[C@H]12`
Data returned: 0.008

###

I'd appreciate it if you could supply MIC50 values for the items below.
Test system: Bacteroides thetaiotaomicron
Test: Antimicrobial activity against beta lactamase-positive Bacteroides thetaiotaomicron isolated from intra-abdominal infection and pelvic inflammatory disease patients after 48 hrs by agar dilution method
Format: functional
State the answer as a number, implicitly in µg/mL.

Data request: Identify the reported MIC50 for the following entry. C[C@@H](O)[C@H]1C(=O)N2C(C(=O)O)=C(S[C@@H]3CN[C@H](CNS(N)(=O)=O)C3)[C@H](C)[C@H]12 [DORIPENEM]
Data returned: 0.25

Data request: Identify the reported MIC50 for the following entry. Cc1ncc([N+](=O)[O-])n1CCO [METRONIDAZOLE]
Data returned: 1

Data request: Identify the reported MIC50 for the following entry. C[C@@H](O)[C@H]1C(=O)N2C(C(=O)O)=C(S[C@@H]3CN[C@H](C(=O)N(C)C)C3)[C@H](C)[C@H]12 [MEROPENEM]
Data returned: 0.25

Data request: Identify the reported MIC50 for the following entry. `C[C@@H](O)[C@H]1C(=O)N2C(C(=O)O)=C(S[C@@H]3CN[C@H](C(=O)Nc4cccc(C(=O)O)c4)C3)[C@H](C)[C@H]12`
Data returned: 0.5

Data request: Identify the reported MIC50 for the following entry. C[C@@H](O)[C@H]1C(=O)N2C(C(=O)O)=C(SCCNC=N)C[C@H]12 [IMIPENEM ANHYDROUS]
Data returned: 0.25

Data request: Identify the reported MIC50 for the following entry. CCC[C@@H]1C[C@@H](C(=O)N[C@@H]([C@H]2O[C@H](SC)[C@H](O)[C@@H](O)[C@H]2O)[C@H](C)Cl)N(C)C1 [CLINDAMYCIN]
Data returned: 4

###

Test system: Prevotella melaninogenica
Test: Antimicrobial activity against beta lactamase-positive Prevotella melaninogenica isolated from intra-abdominal infection and pelvic inflammatory disease patients after 48 hrs by agar dilution method
Format: functional
I'd appreciate it if you could supply MIC90 values for the items below.

Data request: Please indicate recorded MIC90 of `C[C@@H](O)[C@H]1C(=O)N2C(C(=O)O)=C(S[C@@H]3CN[C@H](CNS(N)(=O)=O)C3)[C@H](C)[C@H]12` measured with Prevotella melaninogenica.
Data returned: 0.06 µg/mL

Data request: Please indicate recorded MIC90 of `CCC[C@@H]1C[C@@H](C(=O)N[C@@H]([C@H]2O[C@H](SC)[C@H](O)[C@@H](O)[C@H]2O)[C@H](C)Cl)N(C)C1` measured with Prevotella melaninogenica.
Data returned: ≤ 0.016 µg/mL

Data request: Please indicate recorded MIC90 of `Cc1ncc([N+](=O)[O-])n1CCO` measured with Prevotella melaninogenica.
Data returned: 1 µg/mL

Data request: Please indicate recorded MIC90 of `CO/N=C(\C(=O)N[C@@H]1C(=O)N2C(C(=O)O)=C(CSc3nc(=O)c(O)nn3C)CS[C@H]12)c1csc(N)n1` measured with Prevotella melaninogenica.
Data returned: 16 µg/mL

Data request: Please indicate recorded MIC90 of C[C@@H](O)[C@H]1C(=O)N2C(C(=O)O)=C(SCCNC=N)C[C@H]12 [IMIPENEM ANHYDROUS] measured with Prevotella melaninogenica.
Data returned: 0.03 µg/mL

###

Test system: Phocaeicola vulgatus
Experiment: Antimicrobial activity against beta lactamase-positive Bacteroides vulgatus isolated from intra-abdominal infection and pelvic inflammatory disease patients after 48 hrs by agar dilution method
Format: functional
I'd appreciate it if you could supply MIC50 values for the items below.
State the answer as a number, implicitly in µg/mL.

Data request: Identify the reported MIC50 for the following entry. `C[C@@H](O)[C@H]1C(=O)N2C(C(=O)O)=C(S[C@@H]3CN[C@H](C(=O)Nc4cccc(C(=O)O)c4)C3)[C@H](C)[C@H]12`
Data returned: 0.125

Data request: Identify the reported MIC50 for the following entry. `CCC[C@@H]1C[C@@H](C(=O)N[C@@H]([C@H]2O[C@H](SC)[C@H](O)[C@@H](O)[C@H]2O)[C@H](C)Cl)N(C)C1`
Data returned: 0.03

Data request: Identify the reported MIC50 for the following entry. `CO/N=C(\C(=O)N[C@@H]1C(=O)N2C(C(=O)O)=C(CSc3nc(=O)c(O)nn3C)CS[C@H]12)c1csc(N)n1`
Data returned: 16

Data request: Identify the reported MIC50 for the following entry. `Cc1ncc([N+](=O)[O-])n1CCO`
Data returned: 0.5

Data request: Identify the reported MIC50 for the following entry. C[C@@H](O)[C@H]1C(=O)N2C(C(=O)O)=C(SCCNC=N)C[C@H]12 [IMIPENEM ANHYDROUS]
Data returned: 0.5

Data request: Identify the reported MIC50 for the following entry. `C[C@@H](O)[C@H]1C(=O)N2C(C(=O)O)=C(S[C@@H]3CN[C@H](CNS(N)(=O)=O)C3)[C@H](C)[C@H]12`
Data returned: 0.25

Data request: Identify the reported MIC50 for the following entry. `C[C@@H](O)[C@H]1C(=O)N2C(C(=O)O)=C(S[C@@H]3CN[C@H](C(=O)N(C)C)C3)[C@H](C)[C@H]12`
Data returned: 0.25

###

System: Prevotella corporis
Assay: Antimicrobial activity against beta lactamase-positive Prevotella corporis isolated from intra-abdominal infection and pelvic inflammatory disease patients after 48 hrs by agar dilution method
Type: functional
PROPERTY MEASURED: MIC50 (µg/mL)
State the answer as a number, implicitly in µg/mL.

Data request: Please indicate recorded MIC50 of `C[C@@H](O)[C@H]1C(=O)N2C(C(=O)O)=C(S[C@@H]3CN[C@H](C(=O)Nc4cccc(C(=O)O)c4)C3)[C@H](C)[C@H]12` measured with Prevotella corporis.
Data returned: 0.03

Data request: Please indicate recorded MIC50 of Cc1ncc([N+](=O)[O-])n1CCO [METRONIDAZOLE] measured with Prevotella corporis.
Data returned: 0.5

Data request: Please indicate recorded MIC50 of C[C@@H](O)[C@H]1C(=O)N2C(C(=O)O)=C(S[C@@H]3CN[C@H](C(=O)N(C)C)C3)[C@H](C)[C@H]12 [MEROPENEM] measured with Prevotella corporis.
Data returned: 0.03

Data request: Please indicate recorded MIC50 of CO/N=C(\C(=O)N[C@@H]1C(=O)N2C(C(=O)O)=C(CSc3nc(=O)c(O)nn3C)CS[C@H]12)c1csc(N)n1 [CEFTRIAXONE] measured with Prevotella corporis.
Data returned: 4

Data request: Please indicate recorded MIC50 of C[C@@H](O)[C@H]1C(=O)N2C(C(=O)O)=C(S[C@@H]3CN[C@H](CNS(N)(=O)=O)C3)[C@H](C)[C@H]12 [DORIPENEM] measured with Prevotella corporis.
Data returned: 0.03

Data request: Please indicate recorded MIC50 of C[C@@H](O)[C@H]1C(=O)N2C(C(=O)O)=C(SCCNC=N)C[C@H]12 [IMIPENEM ANHYDROUS] measured with Prevotella corporis.
Data returned: 0.03

###

Test system: Prevotella bivia
Test: Antimicrobial activity against beta lactamase-positive Prevotella bivia isolated from intra-abdominal infection and pelvic inflammatory disease patients after 48 hrs by agar dilution method
Assay type: functional
PROPERTY MEASURED: log10 of MIC50 (log10 of the value in µg/mL)
// do not treat as linear: log10 of MIC50, unit µg/mL

Data request: Please indicate recorded log10 of MIC50 of `CCC[C@@H]1C[C@@H](C(=O)N[C@@H]([C@H]2O[C@H](SC)[C@H](O)[C@@H](O)[C@H]2O)[C@H](C)Cl)N(C)C1` measured with Prevotella bivia.
Data returned: -1.52

Data request: Please indicate recorded log10 of MIC50 of `CO/N=C(\C(=O)N[C@@H]1C(=O)N2C(C(=O)O)=C(CSc3nc(=O)c(O)nn3C)CS[C@H]12)c1csc(N)n1` measured with Prevotella bivia.
Data returned: 0.90

Data request: Please indicate recorded log10 of MIC50 of `C[C@@H](O)[C@H]1C(=O)N2C(C(=O)O)=C(S[C@@H]3CN[C@H](C(=O)N(C)C)C3)[C@H](C)[C@H]12` measured with Prevotella bivia.
Data returned: -1.22

Data request: Please indicate recorded log10 of MIC50 of `Cc1ncc([N+](=O)[O-])n1CCO` measured with Prevotella bivia.
Data returned: 0.30

Data request: Please indicate recorded log10 of MIC50 of `C[C@@H](O)[C@H]1C(=O)N2C(C(=O)O)=C(S[C@@H]3CN[C@H](C(=O)Nc4cccc(C(=O)O)c4)C3)[C@H](C)[C@H]12` measured with Prevotella bivia.
Data returned: -0.60

Data request: Please indicate recorded log10 of MIC50 of `C[C@@H](O)[C@H]1C(=O)N2C(C(=O)O)=C(S[C@@H]3CN[C@H](CNS(N)(=O)=O)C3)[C@H](C)[C@H]12` measured with Prevotella bivia.
Data returned: -1.22

Data request: Please indicate recorded log10 of MIC50 of C[C@@H](O)[C@H]1C(=O)N2C(C(=O)O)=C(SCCNC=N)C[C@H]12 [IMIPENEM ANHYDROUS] measured with Prevotella bivia.
Data returned: -1.52
